molecular target: Fes (UniProt P07332); experiment: phosphorylation enrichment, bacterial display (enrichment ratio); higher = better substrate or ligand; peptides without Tyr show the background
Sequence (P07332 whole entry, looked up): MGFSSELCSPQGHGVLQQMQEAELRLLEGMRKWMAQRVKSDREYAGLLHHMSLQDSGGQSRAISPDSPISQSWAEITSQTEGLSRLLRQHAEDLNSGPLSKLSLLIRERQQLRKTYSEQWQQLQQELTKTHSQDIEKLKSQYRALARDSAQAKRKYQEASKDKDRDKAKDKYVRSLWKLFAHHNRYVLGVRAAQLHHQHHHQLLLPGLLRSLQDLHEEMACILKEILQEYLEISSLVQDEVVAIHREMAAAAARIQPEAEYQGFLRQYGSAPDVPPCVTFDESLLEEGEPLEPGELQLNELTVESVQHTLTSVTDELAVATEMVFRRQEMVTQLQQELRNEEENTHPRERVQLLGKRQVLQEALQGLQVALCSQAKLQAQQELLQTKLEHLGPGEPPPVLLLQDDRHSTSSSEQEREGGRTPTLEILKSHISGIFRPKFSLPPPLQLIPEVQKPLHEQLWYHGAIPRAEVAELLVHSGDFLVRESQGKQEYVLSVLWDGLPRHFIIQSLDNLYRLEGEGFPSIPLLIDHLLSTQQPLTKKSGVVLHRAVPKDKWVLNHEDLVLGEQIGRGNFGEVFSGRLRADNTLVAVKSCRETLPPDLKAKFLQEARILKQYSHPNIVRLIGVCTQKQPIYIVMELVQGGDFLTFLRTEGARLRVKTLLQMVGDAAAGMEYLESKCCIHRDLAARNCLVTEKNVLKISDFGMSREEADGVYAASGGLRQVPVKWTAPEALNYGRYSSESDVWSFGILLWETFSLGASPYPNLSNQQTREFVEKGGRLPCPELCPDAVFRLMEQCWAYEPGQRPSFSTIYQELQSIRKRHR
Parameter: phosphorylation enrichment. Scope: all listed entries.
measured.endpoint: phosphorylation enrichment

chain	measured.endpoint	value
ARVANYQRDGP [CAT_Y386]	phosphorylation enrichment	0.607
LKLIQYHLTQQ [AKAP4_Y554]	phosphorylation enrichment	1.34
GRQWNYVASMS [KLHL4_Y552]	phosphorylation enrichment	0.754
GYITSYREEEQ	phosphorylation enrichment	1.37
LTTPTFGDLNH [TUBB_Y222_Y222F]	phosphorylation enrichment	0.871

---

biological target: FGFR3 (UniProt P22607); experiment: phosphorylation enrichment, bacterial display (enrichment ratio); higher = better substrate or ligand; peptides without Tyr show the background
Sequence (P22607 whole entry, looked up): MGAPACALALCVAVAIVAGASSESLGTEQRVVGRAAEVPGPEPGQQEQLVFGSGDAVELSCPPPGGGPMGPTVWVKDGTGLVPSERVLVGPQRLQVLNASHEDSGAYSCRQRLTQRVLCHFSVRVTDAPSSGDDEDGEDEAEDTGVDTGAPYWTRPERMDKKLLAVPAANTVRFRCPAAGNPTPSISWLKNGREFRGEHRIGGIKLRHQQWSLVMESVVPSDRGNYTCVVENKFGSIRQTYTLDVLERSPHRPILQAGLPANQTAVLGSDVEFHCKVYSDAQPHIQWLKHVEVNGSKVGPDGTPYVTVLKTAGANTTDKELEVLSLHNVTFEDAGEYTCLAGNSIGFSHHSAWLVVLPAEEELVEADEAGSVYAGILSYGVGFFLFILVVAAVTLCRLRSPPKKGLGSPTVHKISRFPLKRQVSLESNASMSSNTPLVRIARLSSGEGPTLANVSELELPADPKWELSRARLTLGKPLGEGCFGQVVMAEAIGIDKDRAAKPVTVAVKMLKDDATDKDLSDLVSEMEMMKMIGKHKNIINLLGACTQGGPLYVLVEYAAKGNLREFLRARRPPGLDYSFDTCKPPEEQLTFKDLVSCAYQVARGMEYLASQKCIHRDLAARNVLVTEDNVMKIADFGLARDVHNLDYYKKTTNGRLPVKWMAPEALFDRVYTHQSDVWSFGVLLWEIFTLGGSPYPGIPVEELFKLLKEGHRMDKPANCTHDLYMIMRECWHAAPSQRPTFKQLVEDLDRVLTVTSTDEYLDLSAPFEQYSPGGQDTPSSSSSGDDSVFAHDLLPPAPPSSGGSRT
// reported phosphorylation enrichment per item
measured.endpoint: phosphorylation enrichment

chain	value
HAVYVCDICHV [TWNK_Y508_Y508C]	0.904
TTEHIYGDNFF [UBA7_Y524]	0.552
STEPQYQPGEN [SRC_Y530]	0.476
KNKELYSDLFD [PDE10A_Y300]	0.66
NREGVYTVSAP [TGFBI_Y537_F540S]	0.523
CITIHYNYMCN [TP53_Y234_T230I]	0.662
YKEQGYHRLPP [RIN1_Y681]	0.544
SSMIDYKPLEK [MYOC_Y479_N480K]	0.425
ISDNACQYMLT [MYH7_Y162_Y162C]	0.687
KLADIYQAELR [GFAP_Y116_V115I]	0.582

---

Measured SH2 binding enrichment of individual entries
target: Grb2 SH2 (UniProt P62993); experiment: SH2 binding enrichment of the phosphorylated peptide, bacterial display (enrichment ratio); higher = better substrate or ligand; peptides without Tyr show the background
Sequence (P62993 whole entry, looked up): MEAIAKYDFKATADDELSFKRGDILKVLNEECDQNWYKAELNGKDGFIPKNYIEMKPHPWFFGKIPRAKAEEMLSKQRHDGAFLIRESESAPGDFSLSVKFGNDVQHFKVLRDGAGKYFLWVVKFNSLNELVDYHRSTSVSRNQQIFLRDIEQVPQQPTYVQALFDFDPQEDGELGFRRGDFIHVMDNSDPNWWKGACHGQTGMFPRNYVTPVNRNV

chain	SH2 binding enrichment
DRLASYRDKVR [KRT12_Y139_L140R]	0.878
LSQAKYQIRFR [CRLF1_Y272_F268S_YF]	1.12
FVSIVYNDSGE [TSC2_Y1650]	1.2
EDEGLYTVRVP [MYOM3_Y343_M344T]	0.83
PVPKTYDMLNA [PKP2_Y108_K112N]	0.962
EPSLDYMVTKI [CPS1_Y768]	1.05
PMDGEYFTLQI [TP53_Y327_L323M]	0.978
DEDEEYEFMNR [ERBB3_Y1197_YF]	1.04
TLEKFYFAFPG [SLC1A1_Y51]	1
QDRTYYERVRT [SPEN_Y633_S635R]	0.792

---

test system: c-Src; experiment: phosphorylation enrichment, bacterial display (enrichment ratio); higher = better substrate or ligand; peptides without Tyr show the background

chain	system.tested	phosphorylation enrichment
HQNGMYRLHQD [SGSH_Y89_G90R]	c-Src	0.5
AMCVCYDGVEV [ADAMTSL2_Y594_R593C]	c-Src	1.02
PEEKVYLSRGD [CRACR2A_Y141_H136P]	c-Src	1.01

---

system: Fer (mouse); assay: phosphorylation enrichment, bacterial display (enrichment ratio); higher = better substrate or ligand; peptides without Tyr show the background
Decision: phosphorylation enrichment >= 0.5 yields 1, all other cases yield 0.

chain	system.tested	label.class
VVQGIYGYHHY [UFSP2_Y285]	Fer (mouse)	1
EATKGYLDDPT [G6PD_Y322]	Fer (mouse)	1
FSQQTYCRVSN [ABCD1_Y180_Y181C]	Fer (mouse)	1
TENAGYFFRVS	Fer (mouse)	1
RAHARYCADAR [ACOT4_Y52]	Fer (mouse)	0
RLLVVYTWTQR [HBB_Y36_P37T]	Fer (mouse)	1
TDLAYYLVCKG [ASL_Y376_R379C]	Fer (mouse)	1
ALADKYHGGGG [HBB_Y146_H144D]	Fer (mouse)	0
ASFGPNTRVQS [FOXL2_Y258_Y258N_YF]	Fer (mouse)	0
